Cocklebur plant response rating listing for selected compounds.
Test system: cocklebur (Xanthium strumarium)
test.summary: Test B pre-/postemergence plant response
Type: in vivo
experimental.parameters: 8 g ai/ha, postemergence; 0-100 scale
Keep the answer to the number alone.

The examples below pair each entry with its known result.
1. Cn1ncc(O)c(-c2nn(-c3ccc(Cl)cc3)cc2Cl)c1=O: 0
2. Cc1nn(C)c(=O)c(-n2nc(-c3ccc(Br)cc3)cc2C)c1O: 0

Input line: Quick check: Cocklebur plant response rating of CCc1cc(-c2ccc(F)cc2)nn1-c1c(O)cnn(C)c1=O ?
Output line: 0

Input line: Param item: CCc1cc(-c2ccc(Cl)cc2)nn1-c1c(OC(=O)C(C)(C)C)cnn(C)c1=O
Output line: 0

Input line: Now give it for Cc1cc(-c2ccc(Cl)cc2)nn1-c1c(OC(=S)N(C)C)cnn(C)c1=O too.
Output line: 0

----------
System: windgrass (Apera spica-venti)
test.summary: Test C pre-/postemergence plant response
Assay type: in vivo
experimental.parameters: Preemergence, 31 g ai/ha; scale 0 to 100 (0 no effect, 100 complete control)
reported.property: Plant response rating, Windgrass

Input line: I would be grateful if you could share the reported Plant response rating, Windgrass for Cc1cc(-c2ccc(Cl)cc2)nn1-c1c(OS(=O)(=O)c2ccccc2[N+](=O)[O-])cnn(C)c1=O .
Output line: 20

Input line: One more compound: C#CCOC(=O)Oc1cnn(C)c(=O)c1-n1nc(-c2ccc(Cl)cc2)cc1C
Output line: 50

Input line: Same again, this time with CCc1cc(-c2ccc(Cl)cc2)nn1-c1c(OC(=O)OC(C)C)cnn(C)c1=O
Output line: 100

Input line: Queued: Cc1cc(-c2ccc(Cl)cc2)nn1-c1c(OC(=O)c2ccccc2)cnn(C)c1=O
Output line: 35

----------
Foxtail, Giant plant response rating: recorded values
Test system: giant foxtail (Setaria faberii)
test.summary: Test B pre-/postemergence plant response
Format: in vivo
experimental.parameters: Preemergence; 8 g ai/ha; scale 0 to 100
Description: […] Plant species in the flooded paddy test consisted of rice (Oryza sativa), umbrella sedge (Cyperus difformis), ducksalad (Heteranthera limosa) and barnyardgrass (Echinochloa crus-galli) grown to the 2-leaf stage for testing. […] Treated plants and controls were maintained in a greenhouse for 13 to 15 days, after which time all species were compared to controls and visually evaluated. […]

Look over these answered cases.
1. Cc1nn(C)c(=O)c(-n2nc(-c3ccc(C(F)(F)F)cc3)cc2C)c1O [Compound 75]: 0
2. CCc1cc(-c2ccc(Cl)cc2)nn1-c1c(OC(=O)C(C)(C)C)cnn(C)c1=O [Compound 40]: 100
3. Cn1ncc(O)c(-c2nn(-c3ccc(Cl)cc3)cc2Br)c1=O [Compound 31]: 90
4. CCc1c(C)c(-c2ccc(Cl)cc2)nn1-c1c(O)cnn(C)c1=O [Compound 26]: 65
5. Cc1cc(-c2ccc(Cl)cc2)nn1-c1c(OC(=O)OCC(C)C)cnn(C)c1=O [Compound 57]: 98

Input line: Which Foxtail, Giant plant response rating is listed for CCc1cc(-c2ccc(C(F)(F)F)cc2)nn1-c1c(OS(C)(=O)=O)cnn(C)c1=O [Compound 19] ?
Output line: 70

----------
In this section we review reported Plant response rating, Pigweed values for a set of molecules.
Tested on: pigweed (Amaranthus retroflexus)
test.summary: Test A pre-/postemergence plant response
Format: in vivo
experimental.parameters: Postemergence, 125 g ai/ha; 0 to 100 scale, 0 no effect, 100 complete control
The response must contain the number and no unit.

Some entries whose results are on file:
1) COCc1cc(-c2ccc(Br)cc2)nn1-c1c(O)cnn(C)c1=O [Compound 68]: 0
2) Cc1nn(-c2ccc(Cl)cc2)cc1-c1c(O)cnn(C)c1=O [Compound 29]: 0
3) COC(=O)Oc1cnn(C)c(=O)c1-n1nc(-c2ccc(Cl)cc2)cc1C [Compound 33]: 0
4) Cn1ncc(O)c(-c2nn(-c3ccc(Cl)cc3)cc2Cl)c1=O [Compound 28]: 0
5) CCc1cc(-c2ccc(Br)cc2)nn1-c1c(O)cnn(C)c1=O [Compound 61]: 0
6) Cc1cc(-c2ccc(Br)cc2)nn1-c1c(O)cnn(C)c1=O [Compound 4]: 0
7) Cc1cc(-c2ccc(Cl)cc2)nn1-c1c(OC(=S)N(C)C)cnn(C)c1=O [Compound 69]: 0
8) Cc1cc(-c2ccc(Cl)cc2)nn1-c1c(OS(=O)(=O)c2ccccc2[N+](=O)[O-])cnn(C)c1=O [Compound 51]: 0
9) CCc1cc(-c2ccc(C(F)(F)F)cc2)nn1-c1c(OC(=O)C2CCCCC2)cnn(C)c1=O [Compound 95]: 0

Next item in the queue.
Input line: For the molecule shown here, CCc1cc(-c2ccc(Br)cc2)nn1-c1c(O)c(OC)nn(C)c1=O [Compound 89] , give the reported Plant response rating, Pigweed.
Output line: 0
